Task for the reader: assign each of the following compounds its reported pIC50.
Target: WHV DNA polymerase (Woodchuck hepatitis B virus)
Construct: The reaction was started by addition of the virus particles with 2-mercaptoethanol and Nonidet P 40; from tissue; host or cells: serum pool of five chronically infected woodchucks (Marmota monax); virions purified on sucrose and CsCl gradients
Sequence (P03160 whole entry): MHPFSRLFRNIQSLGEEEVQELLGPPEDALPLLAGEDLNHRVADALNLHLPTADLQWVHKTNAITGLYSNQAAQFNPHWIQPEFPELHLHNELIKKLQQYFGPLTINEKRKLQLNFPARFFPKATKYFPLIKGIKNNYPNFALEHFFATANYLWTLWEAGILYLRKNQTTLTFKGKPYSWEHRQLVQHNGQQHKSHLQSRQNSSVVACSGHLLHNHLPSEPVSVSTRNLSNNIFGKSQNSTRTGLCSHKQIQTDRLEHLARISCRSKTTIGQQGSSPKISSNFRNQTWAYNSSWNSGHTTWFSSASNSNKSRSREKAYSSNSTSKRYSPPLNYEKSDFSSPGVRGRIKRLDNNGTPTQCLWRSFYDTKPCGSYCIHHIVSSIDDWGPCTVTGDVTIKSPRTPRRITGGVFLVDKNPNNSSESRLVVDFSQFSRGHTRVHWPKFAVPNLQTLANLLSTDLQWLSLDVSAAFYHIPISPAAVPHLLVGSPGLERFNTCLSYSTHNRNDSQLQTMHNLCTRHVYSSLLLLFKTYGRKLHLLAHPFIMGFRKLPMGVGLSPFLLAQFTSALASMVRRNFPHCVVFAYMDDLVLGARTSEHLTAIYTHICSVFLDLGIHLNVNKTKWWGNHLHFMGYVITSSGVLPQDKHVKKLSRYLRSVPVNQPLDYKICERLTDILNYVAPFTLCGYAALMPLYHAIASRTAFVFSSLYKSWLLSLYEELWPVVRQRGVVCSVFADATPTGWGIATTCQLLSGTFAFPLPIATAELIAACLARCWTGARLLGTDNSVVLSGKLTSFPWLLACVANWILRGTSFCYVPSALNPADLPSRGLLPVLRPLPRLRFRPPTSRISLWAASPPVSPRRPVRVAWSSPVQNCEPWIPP
Test: DNA polymerase assay with purified virus particles
Assay type: biochemical
Conditions: concentration of inhibitor giving a 50% inhibition of DNA polymerase activity; read-out: ID₅₀ WHV DNA POLYMERASE
API: returns pIC50 as number; meaning -log10 of concentration in mol/L.

Name the reported pIC50 value associated with the compound Nc1nc2c(ncn2COCCOP(=O)(O)OP(=O)(O)OP(=O)(O)O)c(=O)[nH]1
6.15

Please do the same for Cc1cn([C@@H]2O[C@H](COP(=O)(O)OP(=O)(O)OP(=O)(O)O)[C@@H](O)[C@@H]2O)c(=O)[nH]c1=O as well.
6.40

Please do the same for Nc1ccn([C@@H]2O[C@H](COP(=O)(O)OP(=O)(O)OP(=O)(O)O)[C@@H](O)[C@@H]2O)c(=O)n1 as well.
5.92

Please do the same for Nc1nc(=O)n([C@@H]2O[C@H](COP(=O)(O)OP(=O)(O)OP(=O)(O)O)[C@@H](O)[C@@H]2F)cc1I as well.
7.00

Please do the same for O=c1[nH]c(=O)n([C@H]2C[C@H](O)[C@@H](COP(=O)(O)OP(=O)(O)OP(=O)(O)O)O2)cc1/C=C/Br as well.
6.52

These measurements were taken from patent EP0338042B1.
